target: T1, recombinant LILRB1 ECD (human, UniProt Q8NHL6 24-461); test: BLI, IgG on AHC sensor, ECD in solution
T1 construct: also called biotinylated LILRB1 ECD
T1 sequence (Q8NHL6 24-461 limits assumed): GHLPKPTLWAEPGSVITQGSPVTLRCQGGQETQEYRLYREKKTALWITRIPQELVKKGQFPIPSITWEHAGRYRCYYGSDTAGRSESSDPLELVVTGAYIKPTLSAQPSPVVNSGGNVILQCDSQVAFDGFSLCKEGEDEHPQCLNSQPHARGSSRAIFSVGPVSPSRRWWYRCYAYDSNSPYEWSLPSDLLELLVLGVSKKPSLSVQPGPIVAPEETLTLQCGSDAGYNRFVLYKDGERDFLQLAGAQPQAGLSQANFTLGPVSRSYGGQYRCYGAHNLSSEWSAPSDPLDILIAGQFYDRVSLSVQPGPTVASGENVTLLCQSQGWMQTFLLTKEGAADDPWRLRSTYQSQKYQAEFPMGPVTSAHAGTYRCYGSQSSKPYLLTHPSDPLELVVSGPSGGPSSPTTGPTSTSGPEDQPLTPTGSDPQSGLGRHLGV
QUANTITY KIND: Kd (nM)
Number only, in nM; omit the unit.

Study these solved cases before continuing.
A-029 (antibody, V domains shown, tested as IgG) VH: QVQLVQSGAEVKKPGSSVKVSCKASGYTFSIYAMSWVRQAPGQGLEWMGGIIPSFRTAVYAQKFQGRVTITADESTSTAYMELSSLRSEDTAVYYCAKGPPVGSSSWYTDWYFDLWGRGTLVTVSS VL: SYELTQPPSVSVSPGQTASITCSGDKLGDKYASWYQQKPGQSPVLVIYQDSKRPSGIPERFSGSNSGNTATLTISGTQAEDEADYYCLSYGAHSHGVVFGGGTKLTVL | 1.9
A-005 (antibody, V domains shown, tested as IgG) VH: QVQLVQSGAEVKKPGSSVKVSCKASGGTFTIYAINWVRQAPGQGLEWMGGIIPGFHSANYAQKFQGRVTITADESTSTAYMELSSLRSEDTAVYYCAKDLGTYSSGWPYYYGMDVWGQGTTVTVSS VL: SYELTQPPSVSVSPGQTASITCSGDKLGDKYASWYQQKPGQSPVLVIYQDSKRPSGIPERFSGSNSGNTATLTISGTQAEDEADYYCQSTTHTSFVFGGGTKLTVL | 1

Let us move to another entry and its Kd.
Kd for A-039 (antibody, V domains shown, tested as IgG) VH: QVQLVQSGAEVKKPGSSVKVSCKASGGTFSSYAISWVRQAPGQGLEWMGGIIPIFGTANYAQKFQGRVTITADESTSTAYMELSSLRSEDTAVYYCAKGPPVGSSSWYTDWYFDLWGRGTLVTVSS VL: SYELTQPPSVSVSPGQTASITCSGDKLGDKYASWYQQKPGQSPVLVIYQDSKRPSGIPERFSGSNSGNTATLTISGTQAEDEADYYCALYGGGHTVVFGGGTKLTVL ?
21.6
